test system: NCI-H226 lung; experiment: NCI-60 one-dose screen, 48 h; settings: 10 µM unless noted
The panel holds about 83,000 compounds, 20% with a hit somewhere; the sample as a whole holds those more often. The source made the active and inactive calls. Rule for the calls: active = growth percent below 10; inactive = the rest.
Outcome codes: active, inactive

• Clc1ccc2c(NCCCN3CCN(c4nc(-n5ccnc5)nc5ccccc45)CC3)ccnc2c1 = inactive
• CCn1c(Sc2nnc(Nc3ccccc3)s2)nc2c1c(=O)n(C)c(=O)n2C = inactive
• Cc1ccc(S(=O)(=O)NN/C(N)=N\S(=O)(=O)c2cc(C)c(Cl)cc2SCc2ccccc2)cc1 = inactive
• Cc1c(C)c2c(c(C)c1NC(=O)/C=C\C(=O)O)CCC(C)(CCCC(C)CCCC(C)CCCC(C)C)O2 (centres undefined) = active

---

tested on: HCC-2998 colon; experiment: NCI-60 one-dose screen, 48 h (100 = growth as untreated, 0 = no growth, -100 = all killed); conditions: 10 µM unless noted
This is part of a sample that, as a whole, favours compounds with a hit. Of some 83,000 tested, about 20% had one in any assay. The source made the active and inactive calls. How the source made its calls: active means growth percent below 10; inactive means the rest.
growth values for the molecules below.
result.type: growth

- CCCNCC(=O)Nc1ccc(C(=O)OC(C)(C)CC)cc1: 99.9% (inactive)
- COc1ccc(C2CC(c3cnccn3)=NN2)cc1OC (stereo unspecified): 99.4% (inactive)
- O=c1[nH]c(NCc2nnnn2-c2ccc(Br)cc2)nc2sc3c(c12)CCCC3: 110% (inactive)
- O=C(Oc1ccc([N+](=O)[O-])cc1)c1ccc(CBr)cc1: 103% (inactive)
- N#Cc1cnn2c(-c3ccc(Cl)cc3)nc(NCCc3ccccc3)nc12: 106% (inactive)
- O=C1N/C(=N/O)S/C1=C/c1cn(-c2ccccc2)nc1-c1ccccc1: 126% (inactive)
- C=C(C)[C@@H]1CC[C@]2(CN)CC[C@]3(C)[C@H](CC[C@@H]4[C@@]5(C)CCC(N)[C@@](C)(CO)[C@@H]5CC[C@]43C)[C@@H]12 (stereo partly specified): -53.6% (active)
- COc1cc(NC(=O)c2cccc(-c3cc(=O)c4c(OC)c(OC)c(OC)cc4o3)c2)cc(OC)c1OC: 74.1% (inactive)
- CC1(C)C(=O)/C(=C\c2cccnc2)C[C@]2(C)[C@H]3CC=C4[C@@H]5C[C@@](C)(C(=O)O)CC[C@]5(C)CC[C@@]4(C)[C@]3(C)CC[C@@H]12: 108% (inactive)
- N[C@H]1CCC[C@@H]1NCCCCN1C(=O)c2cccc3cccc(c23)C1=O: 53.9% (inactive)
- CCCCNC(=O)c1cc(NCc2cc(O)ccc2O)ccc1O: 96.4% (inactive)
- CN=C1C=CC(=C(c2ccc(N(C)C)cc2)c2ccc(N(C)C)cc2)C=C1: -31% (active)
- O=C1Nc2ccc(Cl)cc2/C1=N/N=C/c1c[nH]c2ccccc12: 101% (inactive)
- CCCCOC(=O)c1ccc(NC(=O)C(C)N2CCOCC2)cc1 (stereo unspecified): 102% (inactive)
- CCCCCCCCN(CCCCCCCC)C(=N)c1ccnc2ccccc12: -84.1% (active)
- O=c1[nH]nc(-c2ccc(Cl)cc2)cc1Cc1ccccc1: 113% (inactive)
- CCOC(=O)c1c(C)nc2c(c1N)/C(=C/c1ccc(OC)cc1)C(=O)N2Cc1ccc(F)cc1: -83.7% (active)
- COc1ccc(OC)c(Nc2nc3nonc3nc2Nc2cccc(Br)c2)c1: 25% (inactive)
- O=C1C2=C(CCN(Cc3ccccc3)C2)N2CCN=C2N1Cc1ccc(C(F)(F)F)cc1: 23.9% (inactive)
- O=C1CSC(c2ccccc2Cl)N1c1nnc(Cn2cnnc2)o1 (stereo unspecified): 35.8% (inactive)
- Fc1ccc(Nc2ccc3cc(OCCCN4CCOCC4)ccc3n2)cc1F: 20% (inactive)

---

system: OVCAR-8 ovarian; assay: NCI-60 one-dose screen, 48 h (100 = growth as untreated, 0 = no growth, -100 = all killed); settings: 10 µM unless noted
This is part of a sample that, as a whole, favours compounds with a hit. Of some 83,000 tested, about 20% had one in any assay.
result.type: growth (%)

• O=C(CCCCCCCn1cc(-c2cccnc2)nn1)Nc1ccccc1-c1ccccc1 = 20
• C[C@@H]1C(=O)N(C[C@H](Cc2ccccc2)NC(=O)OCc2ccccc2)[C@]1(Cc1ccccc1)C(=O)OC(C)(C)C = 66.9
• O=C(NCCOCCOCCNc1cccc2c1C(=O)N(C1CCCNC1=O)C2=O)c1cc2c(o1)C(=O)c1ccccc1C2=O (configuration not stated) = 3.33
• O=C1CCC(N2C(=O)c3cccc(NCCCC4CCN(CCNC(=O)c5cc6c(o5)C(=O)c5ccccc5C6=O)CC4)c3C2=O)C(=O)N1 (configuration not stated) = 6.28
• NC(N)=N/N=C/c1ccc(Br)cc1 = 78.9
• CCCCCOC(=O)c1cccc(NC(=O)CN(CC)CC)c1 = 103
• COC(=O)CCCNC(=O)C(=O)c1c(O)c(O)c(C(C)C)c2cc(C)c(-c3c(C)cc4c(C(C)C)c(O)c(O)c(C(=O)C(=O)NCCCC(=O)OC)c4c3O)c(O)c12 = -15.1

---

tested on: HT29 colon; experiment: NCI-60 one-dose screen, 48 h; conditions: 10 µM unless noted
The panel holds about 83,000 compounds, 20% with a hit somewhere; the sample as a whole holds those more often. Active and inactive are the calls of the source. The calls were made as follows: active = growth percent below 10; inactive = the rest.
Classes used: YES = active, NO = inactive

- Cc1nc(-c2ccccc2)cc2c(O)c(C(=O)N/N=C/c3ccc(N(C)C)cc3)[nH]c(=O)c12: NO
- O=C1/C(=C/c2ccccc2[N+](=O)[O-])COc2ccc(O)c(O)c21: YES
- Fc1ccc(Nc2nc(Nc3ccc(-c4nc5ccccc5[nH]4)cc3)c3cn[nH]c3n2)cc1: YES
- CCC(=O)OC1=C(C)SC2=NC(c3ccc(Cl)c(Cl)c3)=CC(c3cc(OC)c(OC)c(OC)c3)N21 (stereo not given): NO
- CCCNCC(=O)Nc1ccc(C(=O)OC(C)(C)CC)cc1: NO
- Nc1ccn(C2OC(F)(CO)C(O)C2F)c(=O)n1 (stereo not given): NO
- COc1cc2c(c(OC)c1OC)C(=O)/C(=C/c1cc(C)c(O)c(C)c1)S2: NO
- COc1cc(/C=C2\C=C(c3ccccc3)N(CCc3ccccc3)C2=O)cc(OC)c1OC: NO
- CCOC(=O)c1c(C)nc2c(c1N)/C(=C/c1ccc(OC)cc1)C(=O)N2Cc1ccc(F)cc1: YES
- CN(C)CN1CCN(c2ccc3nc(-c4ccc5nc(-c6ccc(C(F)(F)F)cc6)[nH]c5c4)[nH]c3c2)CC1: NO
- Cc1cnc(Nc2ccc(OCCN3CCCC3)cc2)nc1NCc1ccco1: NO
- C=C1C(=O)O[C@H]2[C@H]1CC/C(COC(=O)NCc1ccc(Cn3c(=O)sn(CCCCl)c3=O)cc1)=C\CC[C@@]1(C)O[C@@H]21: YES
- O=C(NCCOCCOCCNc1cccc2c1C(=O)N(C1CCCNC1=O)C2=O)c1cc2c(o1)C(=O)c1ccccc1C2=O (stereo not given): YES
- CC(=O)c1ccc2c(c1)CCN2: NO
- O=C(c1ccccc1)c1ccc(Cl)c([N+](=O)[O-])c1: NO
- Nc1ccc(S(=O)(=O)Nc2ccsc2-c2nc(-c3ccccc3)no2)cc1: NO
- CCN(CC)S(=O)(=O)c1ccc(O)c(NC(=O)c2[nH]c(C)c(C(C)=O)c2CCc2ccc(Cl)cc2)c1: NO
- CN1CCN(CCCOc2ccc3nc(Nc4cc(Cl)cc(Cl)c4)ccc3c2)CC1: YES
- CCN(CC)CCOC(=O)N1c2ccccc2Sc2ccccc21: NO
- COc1cc(C2CC(c3ccc(Nc4nc(Nc5ccc(F)cc5)nc(Nc5ccc(Cl)cc5)n4)cc3)=NN2C(C)=O)cc(OC)c1OC (stereo not given): NO
- O=C(CC12CC3CC(CC(C3)C1)C2)NCCOCCOCCNC(=O)c1cc2c(o1)C(=O)c1ccccc1C2=O: YES
- N=C(N)c1ccc(-c2ccc(-c3ccc(Cl)cn3)s2)cc1: YES
- O[C@H]1CO[C@H]2[C@@H]1OC[C@@H]2Oc1ccc(Nc2ccnc(Nc3ccc(O[C@H]4CO[C@H]5[C@@H]4OC[C@@H]5O)c(Cl)c3)n2)cc1Cl: YES
- N#Cc1c(NC(=O)c2ccccc2I)sc2c1CCCC2: NO
- COc1cc(NC(=O)c2cccc(-c3cc(=O)c4c(O)c(OC)c(OC)cc4o3)c2)cc(OC)c1OC: NO
- CCCCCOC(=O)c1ccc(NC(=O)CNCC(C)C)cc1: NO
- O=C(CC12CC3CC(CC(C3)C1)C2)NCCOCCOCCOCCNC(=O)c1cc2c(o1)C(=O)c1ccccc1C2=O: YES
- CCN(CC)CCNc1ccc(C)c2sc3cc(C)ccc3c(=O)c12: YES
- N#C/C(=C\c1ccc(Br)cc1)n1nnc2ccccc21: YES
- COc1cccc(/C=C2\COc3ccc(O)cc3C2=O)c1OC: NO
